# Test target: Insulin receptor-related protein (Homo sapiens)
# Run parameters: at 10 µM
Measured quantity: residual activity
Don't forget the unit after the value.

Q: Return reported residual activity; argument: O=C1NC(=O)c2cc(Nc3ccc(F)cc3)c(Nc3ccc(F)cc3)cc21
A: 83%

Q: Which measured residual activity value corresponds to Cc1cccc(-c2[nH]c(C(C)(C)C)nc2-c2ccc3c(c2)OCO3)n1 ?
A: 88%

Q: Item under review: COc1cccc(-c2cc(=O)c3ccccc3o2)c1N . Reported residual activity?
A: 91%

Record residual activity per entry; entries follow.
1. O=C1NC(=O)/C(=C\c2ccc3nccnc3c2)S1
2. O=C(Nc1cccc(Nc2nccc(Nc3cccc(C(F)(F)F)c3)n2)c1)C1CC1
3. CC(C)n1cnc2c(NCc3ccccc3)nc(NCCCO)nc21

A:
1. 58%
2. 1%
3. 84%

###

# Test target: RAC-gamma serine/threonine-protein kinase (Homo sapiens)
# Run parameters: at 1 µM
Measured quantity: residual activity (%)
One number for each entry, in %.

Previously resolved entries follow.
Q: Please look up its residual activity: NC(=O)c1ccc2[nH]c(-c3ccc(Oc4ccc(Cl)cc4)cc3)nc2c1
A: 106

Q: Query: residual activity; subject: CCC(=O)Nc1ccc2ncnc(Nc3cccc(Br)c3)c2c1
A: 102

Q: residual activity for Oc1n[nH]c2nnc(-c3c(-c4ccccc4)nn4ccccc34)cc12 ?
A: 96

Working through the 4 compounds below one at a time, give residual activity for each.
1. CNc1cc2c(Nc3cccc(Br)c3)ncnc2cn1
2. CN(C)c1ccc(/C=C2\C(=O)Nc3ccccc32)cc1
3. c1ccc(-c2n[nH]c3c2oc2ccccc23)cc1
4. Cc1nc(-c2ccccc2)c(-c2ccncc2)o1

A:
1. 104
2. 96
3. 90
4. 118

###

# Test target: Dual specificity mitogen-activated protein kinase kinase 6 (Homo sapiens)
# Run parameters: at 1 µM
Measured quantity: residual activity (%)
Numbers only, in %.

Here are 3 compounds together with their reported answers.
Q: Suppose we examine the compound C[C@@H](N)[C@H]1CC[C@H](C(=O)Nc2ccncc2)CC1 ; what residual activity value has been reported?
A: 101

Q: What does the record list as residual activity for COc1ccc(OC)c2c(=S)c3ccccc3[nH]c12 ?
A: 112

Q: May I ask what residual activity has been recorded for c1ccc(-c2n[nH]cc2-c2ccnc3ccccc23)nc1 ?
A: 75

For every listed record, write down its residual activity.
1. O=C1NC(=O)/C(=C/c2ccc3c(c2)OC(F)(F)O3)S1
2. O=Nc1c(-c2c(O)[nH]c3ccccc23)[nH]c2ccccc12
3. CO[C@H]1C[C@@H]2CC[C@@H](C)[C@@](O)(O2)C(=O)C(=O)N2CCCC[C@H]2C(=O)O[C@H]([C@H](C)C[C@@H]2CC[C@@H](O)[C@H](OC)C2)CC(=O)[C@H](C)/C=C(\C)[C@@H](O)[C@@H](OC)C(=O)[C@H](C)C[C@H](C)/C=C/C=C/C=C/1C
4. COc1ccc(C(=O)Nc2sc3c(c2C(N)=O)CCCC3)cc1OC
5. O=C(Nc1cccc(Nc2cc(Nc3cccc(C(F)(F)F)c3)ncn2)c1)C1CC1
6. O=c1cc(-c2cccc3c2Sc2ccccc2S3)oc(N2CCOCC2)c1
7. N#Cc1cnc2cnc(NCc3cccnc3)cc2c1Nc1ccc(F)c(Cl)c1

A:
72
63
93
80
76
113
10

Working through the 4 compounds below one at a time, give residual activity for each.
1. O=C1Nc2ccccc2/C1=C1/Nc2ccccc2/C1=N\OCCC(O)CO (stereo unspecified)
2. Cc1nc2cc3nc(-c4cccs4)cnc3cc2n1C
3. NC(=O)c1ccc2[nH]c(-c3ccc(Oc4ccc(Cl)cc4)cc3)nc2c1
4. Cc1cc2ncc(-c3ccccc3)nc2cc1C

A:
1. 51
2. 75
3. 91
4. 86

The following compounds each have a reported value; give each one's residual activity.
1. COc1ccc(S(=O)(=O)N(CCO)c2ccccc2CN(C)C/C=C/c2ccc(Cl)cc2)cc1
2. O=C1Nc2cc(Br)ccc2/C1=C1/Nc2ccccc2/C1=N\O
3. O=C1c2ccccc2-[n+]2ccc3c([nH]c4ccccc43)c21
4. c1ccc2c(-c3ccncc3)c[nH]c2c1
5. Oc1ccc(Nc2nc(-c3ccc(Cl)cc3)cs2)cc1

A:
1. 99
2. 87
3. 109
4. 77
5. 82

Dear reader, for each entry below, please note its residual activity.
1. CC(=O)O/N=C1\C(=C2\C(=O)Nc3cc(Br)ccc32)Nc2ccccc21
2. CC[n+]1c(/C=C/N(C)c2ccccc2)n(-c2ccccc2)c2ccc(-c3nc4ccccc4s3)cc21

A:
96
80

###

# Test target: MAP kinase-interacting serine/threonine-protein kinase 2 (Homo sapiens) (UniProt Q9HBH9)
# Sequence (Q9HBH9 whole entry, looked up): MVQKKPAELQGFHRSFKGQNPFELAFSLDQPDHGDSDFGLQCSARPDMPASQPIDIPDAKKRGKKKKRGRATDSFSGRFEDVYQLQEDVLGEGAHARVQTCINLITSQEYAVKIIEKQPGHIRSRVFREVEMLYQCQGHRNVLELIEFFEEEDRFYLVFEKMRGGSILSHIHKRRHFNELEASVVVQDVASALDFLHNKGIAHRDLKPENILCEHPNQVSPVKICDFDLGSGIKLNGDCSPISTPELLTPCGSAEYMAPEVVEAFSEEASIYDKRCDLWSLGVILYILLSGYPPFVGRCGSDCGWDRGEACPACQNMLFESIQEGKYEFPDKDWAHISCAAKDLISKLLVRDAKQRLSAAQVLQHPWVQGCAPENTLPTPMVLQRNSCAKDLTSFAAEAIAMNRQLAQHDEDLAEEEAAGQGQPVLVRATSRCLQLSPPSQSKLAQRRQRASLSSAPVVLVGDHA
# Run parameters: at 10 µM
Measured quantity: residual activity (%)
Give bare numbers, in %.

Examples from the recorded data:
Q: What value of residual activity has been reported for the following compound? COc1cc2ncnc(N3CCN(C(=O)Nc4ccc(Oc5ccccc5)cc4)CC3)c2cc1OC
A: 64

Q: Query (compound): CNc1cc2c(Nc3cccc(Br)c3)ncnc2cn1 ; field requested: residual activity
A: 12

Q: Given the entry COc1cc2ncnc(Nc3ccc(O)c(Br)c3)c2cc1OC , report its measured residual activity.
A: 6

Q: Fill in the blank: the reported residual activity of N#CCCc1ccc2c(c1)-c1[nH]c3ccc([N+](=O)[O-])cc3c1CC(=O)N2 is ____.
A: 42

Q: Which residual activity value belongs to Cc1ccc(NC2=CC(=O)c3sc(C)nc3C2=O)cc1 ?
A: 110

Your task in this section: give residual activity for each listed record.
1. O=C1c2ccccc2-[n+]2ccc3c([nH]c4ccccc43)c21
2. CC(C)n1cnc2c(NCc3ccccc3)nc(NCCCO)nc21
3. Oc1c2ccccc2c2c3c(cccc13)N=N2
4. CC(=O)O/N=C1\C(=C2\C(=O)Nc3cc(Br)ccc32)Nc2ccccc21
5. COc1cccc(-c2cc(=O)c3ccccc3o2)c1N
6. Cn1cnc2cc3c(Nc4cccc(Br)c4)ncnc3cc21

A:
[42, 80, 10, 92, 113, 13]

###

# Test target: Ephrin type-B receptor 4 (Homo sapiens)
# Run parameters: at 10 µM
# Description: Millipore: Percentage of residual kinase activity of EPHB4 at 10uM relative to control. Control inhibitor: PP2 at 30.0uM. Buffer: 8 mM MOPS pH 7.0, 0.2 mM EDTA, 10 mM MnCl2
Give measured residual activity for each item. Keep answers brief.
Give bare numbers, in %.

Q: Return reported residual activity; argument: O=C1Nc2ccccc2/C1=C1/Nc2ccccc2/C1=N\OCCC(O)CO (stereo unspecified)
A: 4

Q: Quick one: residual activity for Cn1nc2c3c(cccc31)C(=O)c1ccccc1-2 ?
A: 83

Q: GET /values?readout=residual activity&item= CCOc1cc2ncnc(Nc3cccc(Br)c3)c2cc1OCC
A: -1

Q: Any idea what residual activity was measured for CC(C)n1cnc2/c(=N/c3cccc(Cl)c3)nc(NCCO)[nH]c21 ?
A: 22

Q: Quick one: residual activity of COc1ccc(CNc2nc(N(CCO)CCO)nc3c2ncn3C(C)C)cc1 ?
A: 77

Working through the 2 molecules below one at a time, give residual activity for each.
1. Cc1ccc(S(=O)(=O)/C=C/C#N)cc1
2. O=C1NC(=O)c2cc(Nc3ccc(F)cc3)c(Nc3ccc(F)cc3)cc21

A:
1: 90; 2: 56

Give residual activity for all molecules that follow.
1. O=c1cc(-c2cccc3c2Sc2ccccc2S3)oc(N2CCOCC2)c1
2. O=C(Nc1cccc(Nc2nccc(Nc3cccc(C(F)(F)F)c3)n2)c1)C1CC1
3. CC(C)n1cnc2c(NCc3ccccc3)nc(NCCCO)nc21

A:
1: 118; 2: 10; 3: 88

Q: What residual activity value was documented for this molecule, NC(=O)c1ccc2[nH]c(-c3ccc(Oc4ccc(Cl)cc4)cc3)nc2c1 ?
A: 93

###

# Test target: Serine/threonine-protein kinase TAO2 (Homo sapiens) (UniProt Q9UL54)
# Sequence (whole entry): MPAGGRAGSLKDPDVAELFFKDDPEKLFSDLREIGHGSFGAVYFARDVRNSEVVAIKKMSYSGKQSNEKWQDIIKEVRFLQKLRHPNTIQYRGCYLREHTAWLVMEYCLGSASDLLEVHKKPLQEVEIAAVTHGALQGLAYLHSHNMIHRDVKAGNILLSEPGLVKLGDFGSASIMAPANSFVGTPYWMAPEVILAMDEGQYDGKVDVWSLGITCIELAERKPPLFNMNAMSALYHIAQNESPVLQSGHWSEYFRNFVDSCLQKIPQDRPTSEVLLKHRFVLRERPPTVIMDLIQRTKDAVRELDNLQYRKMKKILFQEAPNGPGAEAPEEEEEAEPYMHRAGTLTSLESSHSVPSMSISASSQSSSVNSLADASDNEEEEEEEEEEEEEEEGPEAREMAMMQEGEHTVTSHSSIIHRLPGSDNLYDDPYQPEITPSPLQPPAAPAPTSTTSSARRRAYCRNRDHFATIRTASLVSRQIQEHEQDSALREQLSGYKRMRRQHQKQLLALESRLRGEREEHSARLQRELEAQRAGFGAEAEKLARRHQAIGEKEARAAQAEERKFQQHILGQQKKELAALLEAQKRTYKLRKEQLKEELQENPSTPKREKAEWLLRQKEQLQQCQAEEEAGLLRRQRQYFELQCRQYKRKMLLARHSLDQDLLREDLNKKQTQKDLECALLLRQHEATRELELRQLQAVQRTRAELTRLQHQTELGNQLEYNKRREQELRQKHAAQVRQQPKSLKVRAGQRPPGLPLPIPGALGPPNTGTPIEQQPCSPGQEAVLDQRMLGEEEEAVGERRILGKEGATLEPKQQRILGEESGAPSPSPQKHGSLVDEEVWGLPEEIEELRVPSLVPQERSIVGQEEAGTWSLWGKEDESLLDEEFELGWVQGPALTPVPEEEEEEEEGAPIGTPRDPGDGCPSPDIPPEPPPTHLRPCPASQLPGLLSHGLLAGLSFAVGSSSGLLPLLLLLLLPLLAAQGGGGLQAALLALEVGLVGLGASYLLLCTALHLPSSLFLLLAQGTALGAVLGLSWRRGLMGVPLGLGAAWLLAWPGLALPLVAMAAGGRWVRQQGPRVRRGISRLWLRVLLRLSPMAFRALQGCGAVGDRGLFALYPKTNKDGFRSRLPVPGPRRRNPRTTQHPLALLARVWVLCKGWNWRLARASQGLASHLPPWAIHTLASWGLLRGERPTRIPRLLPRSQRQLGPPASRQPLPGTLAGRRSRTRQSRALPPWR
# Run parameters: at 10 µM
Measured quantity: residual activity (%)
Give bare numbers, in %.

Some solved entries appear below for comparison.
Q: GET /values?readout=residual activity&item= COc1ccc(CNc2nc(N(CCO)CCO)nc3c2ncn3C(C)C)cc1
A: 95

Q: # get_value(readout='residual activity', item= CN(C)c1ccc(/C=C2\C(=O)Nc3ccccc32)cc1 )
A: 89

Q: Given the compound N#CCCc1ccc2c(c1)-c1[nH]c3ccc([N+](=O)[O-])cc3c1CC(=O)N2 , what is its reported residual activity?
A: 52

Q: What value of measured residual activity is listed for Oc1ccc(Nc2nc(-c3ccc(Cl)cc3)cs2)cc1 ?
A: 89

Q: Return reported residual activity; argument: Cn1nc2c3c(cccc31)C(=O)c1ccccc1-2
A: 95

Q: Quick one: residual activity of O=C1Nc2ccccc2/C1=C1/Nc2ccccc2/C1=N\OCCC(O)CO (stereo unspecified) ?
A: 70

Q: Record request: residual activity value, item CN(C)CCCn1cc(C2=C(c3c[nH]c4ccccc34)C(=O)NC2=O)c2ccccc21
A: 49

Q: Requested field: residual activity. Item: CCN(CC)C(=O)c1ccc(Nc2nc(OCC3CCCCC3)c3nc[nH]c3n2)cc1
A: 6

Value sought for every listed compound: residual activity.
1. O=C1NC(=O)/C(=C/c2ccc3c(c2)OC(F)(F)O3)S1
2. Oc1ccc(-c2nc(-c3ccc(F)cc3)c(-c3ccncc3)[nH]2)cc1
3. CO[C@@H]1[C@H](N(C)C(=O)c2ccccc2)C[C@H]2O[C@]1(C)n1c3ccccc3c3c4c(c5c6ccccc6n2c5c31)C(=O)NC4
4. Nc1nc(Nc2ccc(S(N)(=O)=O)cc2)nn1C(=S)Nc1c(F)cccc1F
5. COc1cccc(-c2cc(=O)c3ccccc3o2)c1N
6. Cc1nc(-c2ccccc2)c(-c2ccncc2)o1
7. NC(=O)c1ccc2[nH]c(-c3ccc(Oc4ccc(Cl)cc4)cc3)nc2c1

A:
1: 105; 2: 68; 3: 47; 4: 3; 5: 92; 6: 108; 7: 99

Q: # get_value(readout='residual activity', item= CCOc1cc2ncnc(Nc3cccc(Br)c3)c2cc1OCC )
A: 84
